- Experimental target: T1, full-length human GPC3 (human, UniProt P51654 25-554)
- T1 construct: On CHO (DXB11) or SK-HEP-1 (SK-03) transfectants; also used here for the GPC3 on the hepatoma lines HepG2 and HuH-7; also called human glypican 3
- T1 sequence (P51654 25-554 limits assumed): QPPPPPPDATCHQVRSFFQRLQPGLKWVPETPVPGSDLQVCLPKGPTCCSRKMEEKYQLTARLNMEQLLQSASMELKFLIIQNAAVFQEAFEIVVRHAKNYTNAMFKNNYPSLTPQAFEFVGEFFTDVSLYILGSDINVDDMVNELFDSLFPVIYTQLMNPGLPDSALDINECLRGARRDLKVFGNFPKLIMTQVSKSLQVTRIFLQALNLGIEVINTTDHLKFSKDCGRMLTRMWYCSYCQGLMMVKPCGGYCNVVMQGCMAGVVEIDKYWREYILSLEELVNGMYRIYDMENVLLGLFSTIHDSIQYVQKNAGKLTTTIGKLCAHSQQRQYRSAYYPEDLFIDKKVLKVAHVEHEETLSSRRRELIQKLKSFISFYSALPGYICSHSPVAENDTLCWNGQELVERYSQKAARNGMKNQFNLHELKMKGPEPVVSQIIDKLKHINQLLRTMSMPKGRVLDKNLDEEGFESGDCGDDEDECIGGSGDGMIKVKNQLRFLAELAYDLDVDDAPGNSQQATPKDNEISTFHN
- Assay procedure: flow cytometry, antibody at 5 µg/mL, CHO cells expressing human GPC3 (column CHO/human GPC3)
Assign FACS X-mode value of the histogram to each entry below.
Could you respond with only the numeric value?

Form field FACS X-mode value of the histogram, entry M11F1 (antibody, V domains shown, Mouse monoclonal from hybridoma) VH: QVTLKESGPGILQPSQTLSLTCSFSGFSLSIYGMGVGWIRQPSGKGLEWLANIWWNDDKYYNSALKSRLTISKDTSNNQVFLKISSVDTADTATYYCAQIGYFYFDYWGQGTTLTVSS VL: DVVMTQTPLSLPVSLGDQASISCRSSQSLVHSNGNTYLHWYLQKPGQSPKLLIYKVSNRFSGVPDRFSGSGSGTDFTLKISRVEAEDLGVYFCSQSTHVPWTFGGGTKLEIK : 9

Form field FACS X-mode value of the histogram, entry M6B1 (antibody, V domains shown, Mouse monoclonal from hybridoma) VH: EVQLVESGGDLVKPGGSLKLSCAASGFTFSSYAMSWVRQTPEKRLEWVAAINSNGGTTYYPDTMKDRFTISRDNAKNTLYLQMSSLRSEDSALYYCTRHNGGYENYGWFAYWGQGTLVTVSA VL: DIQMTQSPSSLSASLGGKVTITCKASQDINKNIIWYQHKPGKGPRLLIWYTSTLQPGIPSRFSGSGSGRDYSFSISNLEPEDIATYYCLQYDNLPRTFGGGTKLEIK : 37

Form field FACS X-mode value of the histogram, entry M1E7 (antibody, human IgG1, kappa, V domains shown, Mouse monoclonal from hybridoma; also called M1E07) VH: EVQLQQSGPELVKPGASVKISCKASGYSFTGYYMHWVKQSPEKSLEWIGEINPSTGGTTYNQKFKAKATLTVDKSSSTAYMQLKSLTSEDSAVYYCARRGGLTGTSFFAYWGQGTLVTVSA VL: DVVMTQTPLSLSVTIGQPASISCKSSQSLLYSNGKTYLNWLQQRPGQAPKHLMYQVSKLDPGIPDRFSGSGSETDFTLKISRVEAEDLGVYYCLQSTYYPLTFGAGTKLELKR : 28
